experimentSummary: PK study, single PO dose, dogs
Type: in vivo
condition: male, Beagle, dog, plasma, 50 mg/kg, PO 50 mg/kg, Solution (5% NMP, 20% vitamin E TPGS, 20% PEG 300, 0.5% SLS, 1.09% HPMCAS-H, 53.91% water)
endpoint: AUC(0-t) (µg·h/mL)
Field format: number, assumed µg·h/mL, no unit text.

### Prompt So what does the record say about AUC(0-t) for CC(C)(c1ccc(OCc2ccnc(NS(C)(=O)=O)n2)cc1)c1cc(Cl)c(OCCCl)c(C#N)c1 ?
### Response 648

###

experimentSummary: PK study, single PO dose, dogs
Type: in vivo
condition: male, Beagle, dog, plasma, 50 mg/kg, PO 50 mg/kg, Suspension A (SDD)
endpoint: AUC(0-t)

### Prompt So what does the record say about AUC(0-t) for CC(C)(c1ccc(OCc2ccnc(NS(C)(=O)=O)n2)cc1)c1cc(Cl)c(OCCCl)c(C#N)c1 [Compound A] ?
### Response 845 µg·h/mL
